- assay.procedure: physchem
- condition.label: water / aqueous solutions
Structures can show the parent of a compound that is named as a salt.
measure.name: solubility

solubility reading for C=CCNc1c(O)cc2c(O)c1C[C@@H](C)C[C@H](OC)[C@H](O)[C@@H](C)/C=C(\C)[C@H](OC(N)=O)[C@@H](OC)/C=C\C=C(/C)C(=O)N2 [Compound 15, HCl Salt of the Hydroquinone of 17-AAG] : > 200 mg/mL
